- Tested target: T1, His-tagged CEACAM1 (human, UniProt P13688 35-428)
- T1 construct: 45 kDa SPR analyte; also called CEACAM1-HIS; CEACAM1 analyte
- T1 sequence: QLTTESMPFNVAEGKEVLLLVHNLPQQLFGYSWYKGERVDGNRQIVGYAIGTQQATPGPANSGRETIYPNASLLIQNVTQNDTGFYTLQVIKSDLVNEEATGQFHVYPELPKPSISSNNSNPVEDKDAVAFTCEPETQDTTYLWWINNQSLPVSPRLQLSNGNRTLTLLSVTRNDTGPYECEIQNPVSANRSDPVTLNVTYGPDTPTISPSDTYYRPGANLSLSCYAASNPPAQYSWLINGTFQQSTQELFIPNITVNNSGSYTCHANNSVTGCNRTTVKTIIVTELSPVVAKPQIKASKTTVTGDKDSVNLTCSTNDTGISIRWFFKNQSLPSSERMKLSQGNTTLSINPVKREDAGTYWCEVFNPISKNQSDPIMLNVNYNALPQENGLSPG
- Test summary: SPR single-cycle, purified IgG captured
Quantity kind: pKd
Please treat pKd as minus the base-10 logarithm of the molar concentration.

INSERT INTO results (binder, quantitative_result) VALUES
  ('CP08H03/CP08E05 (antibody, IgG4, V domains shown, IgG4 (S241P), kappa) VH: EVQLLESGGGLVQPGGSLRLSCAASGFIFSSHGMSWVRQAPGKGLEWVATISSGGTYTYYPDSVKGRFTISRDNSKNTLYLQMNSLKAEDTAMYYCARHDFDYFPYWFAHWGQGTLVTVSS VL: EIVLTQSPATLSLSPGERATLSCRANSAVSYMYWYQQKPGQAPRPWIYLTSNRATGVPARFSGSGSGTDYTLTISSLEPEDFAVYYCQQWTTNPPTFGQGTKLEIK', 6.96),
  ('CP09C02/CP08E05 (antibody, IgG4, V domains shown, IgG4 (S241P), kappa) VH: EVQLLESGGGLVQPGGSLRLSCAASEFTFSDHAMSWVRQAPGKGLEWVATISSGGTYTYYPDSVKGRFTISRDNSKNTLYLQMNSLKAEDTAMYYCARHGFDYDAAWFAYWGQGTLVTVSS VL: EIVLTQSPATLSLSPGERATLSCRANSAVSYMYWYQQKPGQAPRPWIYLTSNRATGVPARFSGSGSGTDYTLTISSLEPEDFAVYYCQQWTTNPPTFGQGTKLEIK', 7.14),
  ('8H3_9B3/CP08E05 (antibody, IgG4, V domains shown, IgG4 (S241P), kappa) VH: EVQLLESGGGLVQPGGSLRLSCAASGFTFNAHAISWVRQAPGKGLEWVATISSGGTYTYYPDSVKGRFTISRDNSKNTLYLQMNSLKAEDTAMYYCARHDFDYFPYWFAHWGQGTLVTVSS VL: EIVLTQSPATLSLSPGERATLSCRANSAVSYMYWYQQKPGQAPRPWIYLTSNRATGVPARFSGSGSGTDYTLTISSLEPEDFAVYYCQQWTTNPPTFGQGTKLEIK', 7.16),
  ('CP09C02/CP08F05 (antibody, IgG4, V domains shown, IgG4 (S241P), kappa) VH: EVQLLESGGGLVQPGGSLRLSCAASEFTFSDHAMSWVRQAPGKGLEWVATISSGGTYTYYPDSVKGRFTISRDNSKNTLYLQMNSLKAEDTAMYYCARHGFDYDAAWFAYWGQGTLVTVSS VL: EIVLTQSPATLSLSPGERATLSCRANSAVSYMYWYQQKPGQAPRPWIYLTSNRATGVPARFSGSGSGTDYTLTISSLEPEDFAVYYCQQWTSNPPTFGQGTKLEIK', 7.02),
  ('8H3_9B3/CP08F05 (antibody, IgG4, V domains shown, IgG4 (S241P), kappa) VH: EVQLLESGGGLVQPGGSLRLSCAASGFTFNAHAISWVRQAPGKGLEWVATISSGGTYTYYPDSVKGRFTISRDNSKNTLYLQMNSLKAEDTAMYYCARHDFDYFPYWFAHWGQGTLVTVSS VL: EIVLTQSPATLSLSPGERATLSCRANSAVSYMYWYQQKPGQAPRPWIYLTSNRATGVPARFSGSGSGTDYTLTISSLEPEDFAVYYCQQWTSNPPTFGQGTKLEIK', 7.23);

Recorded result, 8H3_9C2/CP08F05 (antibody, IgG4, V domains shown, IgG4 (S241P), kappa; also called 8H3_9C2/CPO08_F05) VH: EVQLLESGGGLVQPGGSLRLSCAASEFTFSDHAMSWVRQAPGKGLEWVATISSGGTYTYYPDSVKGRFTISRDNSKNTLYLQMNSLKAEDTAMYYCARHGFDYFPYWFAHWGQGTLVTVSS VL: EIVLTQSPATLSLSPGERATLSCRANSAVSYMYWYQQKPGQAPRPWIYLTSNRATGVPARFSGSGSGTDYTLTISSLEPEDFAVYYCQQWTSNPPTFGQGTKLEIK , pKd: 7.12

Recorded result, CP08H03/CP08F05 (antibody, V domains shown, IgG4 (S241P), kappa) VH: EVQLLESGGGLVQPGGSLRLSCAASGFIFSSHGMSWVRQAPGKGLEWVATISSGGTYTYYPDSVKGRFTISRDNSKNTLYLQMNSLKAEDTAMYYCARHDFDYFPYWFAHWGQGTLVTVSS VL: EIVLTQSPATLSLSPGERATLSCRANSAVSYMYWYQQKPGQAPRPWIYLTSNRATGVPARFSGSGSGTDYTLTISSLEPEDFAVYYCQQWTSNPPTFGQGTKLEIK , pKd: 7.02

Recorded result, CP08H03/Vκ8 S29A (antibody, IgG4, V domains shown, IgG4 (S241P), kappa; also called CP08_H03/Parent VL; CP08_H03/Parental) VH: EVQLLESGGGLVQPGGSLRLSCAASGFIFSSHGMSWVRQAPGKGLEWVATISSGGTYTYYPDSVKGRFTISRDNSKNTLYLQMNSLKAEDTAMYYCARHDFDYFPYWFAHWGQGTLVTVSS VL: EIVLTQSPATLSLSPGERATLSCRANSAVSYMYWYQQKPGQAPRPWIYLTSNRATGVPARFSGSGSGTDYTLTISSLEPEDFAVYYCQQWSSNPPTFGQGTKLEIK , pKd: 6.92

Recorded result, 9B3_9E5/CP08E05 (antibody, IgG4, V domains shown, IgG4 (S241P), kappa) VH: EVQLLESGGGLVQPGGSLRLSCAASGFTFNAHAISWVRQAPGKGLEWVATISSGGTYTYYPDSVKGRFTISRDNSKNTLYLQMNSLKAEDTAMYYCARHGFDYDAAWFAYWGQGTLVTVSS VL: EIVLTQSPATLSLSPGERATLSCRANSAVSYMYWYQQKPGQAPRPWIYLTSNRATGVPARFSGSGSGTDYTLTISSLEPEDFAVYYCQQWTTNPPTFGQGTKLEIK , pKd: 7.21
